Source: patent US20260242478A1

Listing: Phage binding ELISA, Anti-CD28 Fab signal in the presence of CD28 of selected binders
measurement_target: T1, Anti-CD28 Fab (SEQ ID NOs: 696, 697)
T1 construct: Biotinylated and captured on neutravidin coated plates in the phage ELISA
T1 sequence (VH, as listed by the source, chain 1 of 2): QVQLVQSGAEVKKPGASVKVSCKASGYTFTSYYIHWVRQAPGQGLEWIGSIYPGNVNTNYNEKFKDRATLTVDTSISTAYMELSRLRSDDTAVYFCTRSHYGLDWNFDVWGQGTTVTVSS
T1 sequence (VL, as listed by the source, chain 2 of 2): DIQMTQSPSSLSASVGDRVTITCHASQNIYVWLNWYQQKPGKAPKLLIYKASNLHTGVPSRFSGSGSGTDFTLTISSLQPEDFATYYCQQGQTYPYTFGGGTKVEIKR
measurement_description: clonal phage ELISA on captured anti-CD28 Fab; wells pre-incubated with CD28 antigen as competitor
endpoint_label: Phage binding ELISA, Anti-CD28 Fab signal in the presence of CD28

- binder: "YCVGHLPEYMLECM [Phage-1188]"
  endpoint_value: 0.07
- binder: "YCEGHAQEYMAKCL [Phage-1193]"
  endpoint_value: 0.08
- binder: "YCEGHMGEYMLKCL [Phage-1184]"
  endpoint_value: 0.06
- binder: "YCDGHAKVYIWKCL [Phage-1194]"
  endpoint_value: 0.08
- binder: "YCEGHIPMYMLKCM [Phage-1192]"
  endpoint_value: 0.09
- binder: "YCDGHSFHYMAKCL [Phage-1189]"
  endpoint_value: 0.06
- binder: "YCDGHAMEYMEKCL [Phage-1182]"
  endpoint_value: 0.08
- binder: "YCDGHTKEYMWKCL [Phage-1185]"
  endpoint_value: 0.06
